Reference source for all entries: the supplement of paper PMC7125110

# self-cleavage kobs at 640 uM GlcN6P per record follows
B1: glmS ribozyme (parent)
chain: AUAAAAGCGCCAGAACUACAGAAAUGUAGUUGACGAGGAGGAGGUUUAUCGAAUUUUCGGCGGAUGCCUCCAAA

- Variants of: B1
- protocolSummary: self-cleavage kobs at 640 uM GlcN6P; higher = faster cleavage; RNA array
- appliedConditions: with glucosamine-6-phosphate
This sample holds only a part of the variants without activity.
measuredProperty: self-cleavage kobs at 640 uM GlcN6P

| variantCode | measurement |
| --- | --- |
| A39U A53U | 0.00368 s⁻¹ |
| U46G A53G | 0.00165 s⁻¹ |
| C8G G35A G44C | < 1e-05 s⁻¹ |
| U31C G43A | < 1e-05 s⁻¹ |
| G7U A36C A42C G66C | < 1e-05 s⁻¹ |
| A33U G41A C58A U65G | < 1e-05 s⁻¹ |
| U46C | 0.00126 s⁻¹ |
| A12G C16U U49A | < 1e-05 s⁻¹ |
| A15U G40U A48C | < 1e-05 s⁻¹ |
| G43A C58A | < 1e-05 s⁻¹ |
| A12U U46A | 0.00161 s⁻¹ |
| A15G U55C | 0.0055 s⁻¹ |
| A6G G43A | < 1e-05 s⁻¹ |
| C10G G44U C70U | < 1e-05 s⁻¹ |
| U30A G40U G60C C61A | < 1e-05 s⁻¹ |
| G32C A53C | < 1e-05 s⁻¹ |
| G32A G44C G66A C68A | < 1e-05 s⁻¹ |
| C8A C10G C34A | < 1e-05 s⁻¹ |
| U30C G32C U55A | 8.42e-05 s⁻¹ |
| C16G G29C A33U A48C | < 1e-05 s⁻¹ |
| C11U G41U A48G | < 1e-05 s⁻¹ |
| U46C U55A | 0.0011 s⁻¹ |
